Biological target: human polymerase gamma (Homo sapiens, UniProt P54098)
Sequence (P54098 1-1239): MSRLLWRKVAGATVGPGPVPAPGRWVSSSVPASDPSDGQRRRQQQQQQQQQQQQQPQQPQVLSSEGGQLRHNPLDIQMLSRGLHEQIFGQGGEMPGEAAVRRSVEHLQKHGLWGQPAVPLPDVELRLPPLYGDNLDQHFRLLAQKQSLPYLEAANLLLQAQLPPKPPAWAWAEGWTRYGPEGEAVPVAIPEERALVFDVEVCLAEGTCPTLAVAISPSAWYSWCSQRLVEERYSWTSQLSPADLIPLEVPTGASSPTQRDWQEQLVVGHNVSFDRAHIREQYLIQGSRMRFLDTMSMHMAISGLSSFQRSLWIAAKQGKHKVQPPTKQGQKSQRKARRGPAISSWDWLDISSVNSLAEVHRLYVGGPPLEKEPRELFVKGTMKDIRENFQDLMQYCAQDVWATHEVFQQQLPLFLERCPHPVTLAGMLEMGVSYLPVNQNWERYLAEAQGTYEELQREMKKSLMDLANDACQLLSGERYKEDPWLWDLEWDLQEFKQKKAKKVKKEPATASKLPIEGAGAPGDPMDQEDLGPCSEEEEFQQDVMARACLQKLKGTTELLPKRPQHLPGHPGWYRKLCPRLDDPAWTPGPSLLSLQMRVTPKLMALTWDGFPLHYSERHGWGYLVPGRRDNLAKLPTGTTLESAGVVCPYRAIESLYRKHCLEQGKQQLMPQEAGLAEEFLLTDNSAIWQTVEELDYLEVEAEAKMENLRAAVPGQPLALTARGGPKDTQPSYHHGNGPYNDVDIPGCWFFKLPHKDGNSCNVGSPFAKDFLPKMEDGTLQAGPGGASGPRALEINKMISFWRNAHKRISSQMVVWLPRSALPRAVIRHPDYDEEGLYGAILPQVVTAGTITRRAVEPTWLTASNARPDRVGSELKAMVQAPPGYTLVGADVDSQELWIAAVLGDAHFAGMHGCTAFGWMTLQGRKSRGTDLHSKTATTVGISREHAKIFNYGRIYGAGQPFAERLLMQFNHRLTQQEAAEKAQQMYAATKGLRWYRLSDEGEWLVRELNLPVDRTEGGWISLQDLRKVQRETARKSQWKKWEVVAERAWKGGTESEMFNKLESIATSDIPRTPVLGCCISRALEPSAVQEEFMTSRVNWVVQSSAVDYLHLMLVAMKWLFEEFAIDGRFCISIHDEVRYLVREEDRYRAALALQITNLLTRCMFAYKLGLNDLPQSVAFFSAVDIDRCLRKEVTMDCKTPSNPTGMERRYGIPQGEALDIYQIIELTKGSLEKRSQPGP
pIC50: −log10 of the molar value.

[
  {
    "CHEMICAL SMILES": "Cc1ccc(NC(=O)[C@@H](CCCCN)NC(=O)Nc2ccc3c(c2)Cc2ccccc2-3)cc1",
    "pIC50": 4.80
  }
]
